Target: T1, cynomolgus monkey CD71 extracellular domain (CD71-ECD) (cynomolgus monkey, UniProt H9EXL1 89-760 (rhesus entry))
T1 construct: extracellular domain; It was captured on a Neutravidin plate; also called cynomolgus CD71-ECD
T1 sequence (chain, as listed by the source): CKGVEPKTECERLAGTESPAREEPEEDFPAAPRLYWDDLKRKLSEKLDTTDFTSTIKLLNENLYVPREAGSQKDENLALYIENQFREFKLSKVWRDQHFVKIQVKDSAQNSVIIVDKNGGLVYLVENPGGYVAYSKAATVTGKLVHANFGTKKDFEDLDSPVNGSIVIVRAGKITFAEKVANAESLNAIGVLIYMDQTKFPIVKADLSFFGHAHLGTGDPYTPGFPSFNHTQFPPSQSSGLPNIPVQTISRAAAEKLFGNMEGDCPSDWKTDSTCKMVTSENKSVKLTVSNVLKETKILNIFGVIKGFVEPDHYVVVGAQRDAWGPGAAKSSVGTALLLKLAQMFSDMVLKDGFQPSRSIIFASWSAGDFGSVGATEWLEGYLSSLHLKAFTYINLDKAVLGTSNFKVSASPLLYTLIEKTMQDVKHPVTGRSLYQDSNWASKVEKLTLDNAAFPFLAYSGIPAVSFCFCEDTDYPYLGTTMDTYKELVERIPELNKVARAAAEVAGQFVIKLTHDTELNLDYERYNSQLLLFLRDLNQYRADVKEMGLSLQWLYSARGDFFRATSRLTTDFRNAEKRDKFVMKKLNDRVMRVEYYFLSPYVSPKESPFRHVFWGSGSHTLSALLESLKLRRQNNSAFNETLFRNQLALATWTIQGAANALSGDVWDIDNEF
Experiment: capture ELISA, 20 nM antigen on Neutravidin plate, FN3 titrated 250 to 0.3 nM
# key: entry, value: EC50
Response body: numeric value in nM, unit text excluded.

Worked examples, 2 binders total:
# Binder, Endpoint, Recorded measurement
measured = [
    ("CD71-binding FN3 domain of SEQ ID NO: 478 (designed binder, Tencon-based FN3 domain) MLPAPKNLVVSRVTEDSARLSWTAPDAAFDSFFIGYLEPQPPGEAIHLYVPGSERSYDLTGLKPGTEYNVTIQGVKGGFPSVPLIAKFTT", "EC50", 0.6),
    ("CD71-binding FN3 domain of SEQ ID NO: 496 (designed binder, Tencon-based FN3 domain) MLPAPKNLVVSRVTEDSARLSWTAPDAAFDSFFIGYLEPQPPGEAIILWVPGSERSYDLTGLKPGTEYNVTIQGVKGGFPSVPLIAQFTT", "EC50", 10.6),
]

Read the next record carefully.
What does the record list as EC50 for CD71-binding FN3 domain of SEQ ID NO: 400 (designed binder, Tencon-based FN3 domain) MLPAPKNLVVSRVTEDSARLSWTAPDAAFDSFFIGYLEPQPPGEAIHLFVPGSERSYDLTGLKPGTEYNVTIQGVKGGFPSGPLHATFTT ?
4.3
